assay: Oral bioavailability in CD1 mouse at 100 mg/kg administered as single dose; type: ADME, organism-based; details: in vivo

chemical string: Cc1ncsc1-c1ccc([C@H](C)NC(=O)[C@@H]2C[C@@H](O)CN2C(=O)[C@@H](NC(=O)CCCCOc2ccc(-c3csc(N4CCOCC4)n3)cc2)C(C)(C)C)cc1
bioavailability: 4.6%

* * *

assay: Metabolic stability in mouse liver microsomes assessed as parent compound remaining measured at 1 hr; type: ADME, Microsome; settings: read-out: Stability

chemical string: Cc1ncsc1-c1ccc([C@H](C)NC(=O)[C@@H]2C[C@@H](O)CN2C(=O)[C@@H](NC(=O)CCCOc2ccc(-c3csc(N4CCOCC4)n3)cc2)C(C)(C)C)cc1
remaining at 1 h, %: 5

chemical string: Cc1ncsc1-c1ccc([C@H](C)NC(=O)[C@@H]2C[C@@H](O)CN2C(=O)[C@@H](NC(=O)CCCCOc2ccc(-c3csc(N4CCOCC4)n3)cc2)C(C)(C)C)cc1
remaining at 1 h, %: 6

* * *

assay: Aqueous solubility of the compound at pH.7.4; type: physicochemical

chemical string: Cc1ncsc1-c1ccc([C@H](C)NC(=O)[C@@H]2C[C@@H](O)CN2C(=O)[C@@H](NC(=O)CCCOc2ccc(-c3csc(N4CCOCC4)n3)cc2)C(C)(C)C)cc1
qualifier sign: <
solubility [µM]: 2
//
chemical string: Cc1ncsc1-c1ccc([C@H](C)NC(=O)[C@@H]2C[C@@H](O)CN2C(=O)[C@@H](NC(=O)CCCCOc2ccc(-c3csc(N4CCOCC4)n3)cc2)C(C)(C)C)cc1
qualifier sign: =
solubility [µM]: 3.5

* * *

assay: Terminal half life in CD1 mouse at 30 mg/kg, po administered as single dose; type: ADME, organism-based; settings: in vivo, read-out: beta t1/2 (converted)

chemical string: Cc1ncsc1-c1ccc([C@H](C)NC(=O)[C@@H]2C[C@@H](O)CN2C(=O)[C@@H](NC(=O)CCCCOc2ccc(-c3csc(N4CCOCC4)n3)cc2)C(C)(C)C)cc1
half-life (min): 60

* * *

experiment: Cmax in CD1 mouse at 1 mg/kg, iv administered as single dose; format: ADME, organism-based; set-up: dose 1 mg/kg, route iv; conditions: in vivo

chemical string: Cc1ncsc1-c1ccc([C@H](C)NC(=O)[C@@H]2C[C@@H](O)CN2C(=O)[C@@H](NC(=O)CCCCOc2ccc(-c3csc(N4CCOCC4)n3)cc2)C(C)(C)C)cc1
Cmax (ng/mL): 2900

* * *

assay: AUC (0 to infinity) in CD1 mouse at 100 mg/kg, po administered as single dose; assay type: ADME, organism-based; design: time infinity, dose 100 mg/kg, route po; conditions: in vivo

chemical string: Cc1ncsc1-c1ccc([C@H](C)NC(=O)[C@@H]2C[C@@H](O)CN2C(=O)[C@@H](NC(=O)CCCCOc2ccc(-c3csc(N4CCOCC4)n3)cc2)C(C)(C)C)cc1
AUC(0-inf) / ng·h/mL: 5950

* * *

Entries and their DC50
biological target: von Hippel-Lindau disease tumor suppressor/Androgen receptor (Homo sapiens, UniProt P10275+P40337); experiment: PROTAC activity at VHL/AR-V7 (unknown origin) expressed in human 22Rv1 cells assessed as induction of AR-V7 degradation; type: cell-based
Sequence (P10275 whole entry, looked up, change not shown): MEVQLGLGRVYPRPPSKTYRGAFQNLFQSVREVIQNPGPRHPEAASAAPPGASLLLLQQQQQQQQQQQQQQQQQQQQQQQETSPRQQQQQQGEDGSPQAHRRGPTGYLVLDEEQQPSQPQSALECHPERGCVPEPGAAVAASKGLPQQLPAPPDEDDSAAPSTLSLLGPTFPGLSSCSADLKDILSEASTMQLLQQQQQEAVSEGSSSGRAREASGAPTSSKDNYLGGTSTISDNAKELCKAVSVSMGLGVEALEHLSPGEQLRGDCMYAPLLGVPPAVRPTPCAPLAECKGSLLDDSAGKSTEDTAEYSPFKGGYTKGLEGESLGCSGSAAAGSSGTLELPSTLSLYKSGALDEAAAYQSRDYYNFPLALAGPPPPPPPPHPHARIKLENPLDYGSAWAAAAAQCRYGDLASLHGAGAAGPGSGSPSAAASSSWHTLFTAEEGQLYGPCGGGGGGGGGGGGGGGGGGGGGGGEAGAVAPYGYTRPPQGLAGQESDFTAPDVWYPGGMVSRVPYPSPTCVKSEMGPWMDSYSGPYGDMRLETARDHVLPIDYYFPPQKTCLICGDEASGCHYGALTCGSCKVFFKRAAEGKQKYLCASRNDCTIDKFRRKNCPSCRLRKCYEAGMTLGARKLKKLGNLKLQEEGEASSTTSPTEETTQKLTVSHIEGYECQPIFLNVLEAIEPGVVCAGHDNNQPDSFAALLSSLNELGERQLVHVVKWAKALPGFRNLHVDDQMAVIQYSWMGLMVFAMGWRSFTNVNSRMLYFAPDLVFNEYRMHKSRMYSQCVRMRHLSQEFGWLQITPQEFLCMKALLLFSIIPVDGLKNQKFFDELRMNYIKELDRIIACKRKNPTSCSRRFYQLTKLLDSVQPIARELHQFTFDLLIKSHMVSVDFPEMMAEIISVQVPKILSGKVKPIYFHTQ
Sequence (P40337 whole entry, looked up, change not shown): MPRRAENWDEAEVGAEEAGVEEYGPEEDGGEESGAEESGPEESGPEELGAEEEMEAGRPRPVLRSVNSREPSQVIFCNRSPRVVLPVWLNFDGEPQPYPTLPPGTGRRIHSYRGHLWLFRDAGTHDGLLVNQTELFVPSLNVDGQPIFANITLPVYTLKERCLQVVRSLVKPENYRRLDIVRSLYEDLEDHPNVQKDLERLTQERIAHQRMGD
measure: DC50

compound: Cc1ncsc1-c1ccc([C@H](C)NC(=O)[C@@H]2C[C@@H](O)CN2C(=O)[C@@H](NC(=O)COc2ccc(-c3csc(N4CCOCC4)n3)cc2)C(C)(C)C)cc1
observed value: > 10 µM
//
compound: Cc1ncsc1-c1ccc([C@H](C)NC(=O)[C@@H]2C[C@@H](O)CN2C(=O)[C@@H](NC(=O)CCCCOc2ccc(-c3csc(N4CC5CCC(C4)O5)n3)cc2)C(C)(C)C)cc1
observed value: > 10 µM
//
compound: Cc1ncsc1-c1ccc([C@H](C)NC(=O)[C@@H]2C[C@@H](O)CN2C(=O)[C@@H](NC(=O)c2ccc(-c3csc(N4CCOCC4)n3)cc2)C(C)(C)C)cc1
observed value: > 10 µM
//
compound: Cc1ncsc1-c1ccc([C@H](C)NC(=O)[C@@H]2C[C@@H](O)CN2C(=O)[C@@H](NC(=O)CCCCOc2ccc(-c3csc(N4CCOC(C)(C)C4)n3)cc2)C(C)(C)C)cc1
observed value: > 10 µM
//
compound: Cc1ncsc1-c1ccc([C@H](C)NC(=O)[C@@H]2C[C@@H](O)CN2C(=O)[C@@H](NC(=O)CCCCCOc2ccc(-c3csc(N4CCOCC4)n3)cc2)C(C)(C)C)cc1
observed value: 1 µM
//
compound: c1ccc(-c2csc(N3CCOCC3)n2)cc1
observed value: > 10 µM
//
compound: COc1c(-c2csc(N3CCOCC3)n2)ccc(OCCCCC(=O)N[C@H](C(=O)N2C[C@H](O)C[C@H]2C(=O)N[C@@H](C)c2ccc(-c3scnc3C)cc2)C(C)(C)C)c1F
observed value: > 10 µM
//
compound: Cc1ncsc1-c1ccc([C@H](C)NC(=O)[C@@H]2C[C@@H](O)CN2C(=O)[C@@H](NC(=O)CCCCOc2ccc(-c3csc(N4CCOCC4)n3)cc2)C(C)(C)C)cc1
observed value: 0.32 µM
//
compound: Cc1ncsc1-c1ccc([C@H](C)NC(=O)[C@@H]2C[C@@H](O)CN2C(=O)[C@@H](NC(=O)CCCCOc2ccc(-c3csc(N4CCOCC4C)n3)cc2)C(C)(C)C)cc1 (stereo partly specified)
observed value: > 10 µM
//
compound: Cc1ncsc1-c1ccc([C@H](C)NC(=O)[C@@H]2C[C@@H](O)CN2C(=O)[C@@H](NC(=O)CCCOc2ccc(-c3csc(N4CCOCC4)n3)cc2)C(C)(C)C)cc1
observed value: 0.35 µM
//
compound: Cc1ncsc1-c1ccc([C@H](C)NC(=O)[C@@H]2C[C@@H](O)CN2C(=O)[C@@H](NC(=O)CCOc2ccc(-c3csc(N4CCOCC4)n3)cc2)C(C)(C)C)cc1
observed value: > 10 µM
